Settings: pH 13.0
property.name: logD
Just the number, please.

I have this molecule here, Cc1cccc(N)c1 , and I need its recorded logD.
1.49

Query: logD; subject: Nc1cccc([N+](=O)[O-])c1
1.43

For the molecule shown here, Nc1ccc(Br)cc1 , give the reported logD.
2

Reported logD for Cc1ccccc1N : what is it?
1.44

Which logD reading was recorded for the molecule Nc1ccc(Cl)cc1 ?
1.8

Would you mind telling me what logD value was observed for Nc1cccc(I)c1 ?
2.86

---

Details: pH 1.0
Each record here notes measured logD.

Oc1cccc(Br)c1	2.59

Quick one: logD for O=C(O)c1cccc(Cl)c1 ?
2.51
